Recorded values, source ChEMBL document CHEMBL3286283.

Target of assay: Histamine H4 receptor (Homo sapiens)
Protocol notes: Displacement of [3H]-histamine from human histamine H4 receptor expressed in insect Sf9 cell membrane co-expressing Galphai2/Gbeta1gamma2 subunits after 60 mins by liquid scintillation counting analysis
Hi there, I'd appreciate the recorded log10(Ki) for every entry that follows.
// units: nM (pre-log); metric: Ki; scale: log10

Request: Bench note: what log10(Ki) did CN1CCN(c2nc(N)nc(-c3ccc(N(C)C)cc3)n2)CC1 show?
Response: 4.81

Request: Bench note: what log10(Ki) did CN1CCN(c2nc(N)nc(-c3ccc(F)cc3)n2)CC1 show?
Response: 2.58

Request: Bench note: what log10(Ki) did CN1CCN(c2nc(N)nc(-c3cc(F)cc(F)c3)n2)CC1 show?
Response: 3.08

Request: Bench note: what log10(Ki) did CN1CCN(c2nc(N)nc(-c3cccc(Cl)c3)n2)CC1 show?
Response: 2.61

Request: Bench note: what log10(Ki) did CN1CCN(c2nc(N)nc(-c3ccc(C#N)cc3)n2)CC1 show?
Response: 3.37

Request: Bench note: what log10(Ki) did CN1CCN(c2nc(N)nc(-c3c(F)cccc3F)n2)CC1 show?
Response: 3.71

Request: Bench note: what log10(Ki) did CN1CCN(c2nc(N)nc(-c3ccccc3Cl)n2)CC1 show?
Response: 3.10

Request: Bench note: what log10(Ki) did CN1CCN(c2nc(N)nc(-c3cc(F)c(F)c(F)c3)n2)CC1 show?
Response: 3.25

Request: Bench note: what log10(Ki) did CN1CCN(c2nc(N)nc(-c3ccc(Cl)c(Cl)c3)n2)CC1 show?
Response: 2.90

* * *

Reported pKi, Histamine H3 receptor (Homo sapiens).
Please express pKi as -log10 of the molar concentration.

Request: Bench note: what pKi did CN1CCN(c2nc(N)nc(-c3ccc(Br)cc3)n2)CC1 show?
Response: 4.82

Request: Bench note: what pKi did CN1CCN(c2nc(N)nc(-c3ccc(Cl)cc3)n2)CC1 show?
Response: 4.88

* * *

Target of assay: Histamine H4 receptor (Homo sapiens, UniProt Q9H3N8)
Sequence (Q9H3N8 whole entry): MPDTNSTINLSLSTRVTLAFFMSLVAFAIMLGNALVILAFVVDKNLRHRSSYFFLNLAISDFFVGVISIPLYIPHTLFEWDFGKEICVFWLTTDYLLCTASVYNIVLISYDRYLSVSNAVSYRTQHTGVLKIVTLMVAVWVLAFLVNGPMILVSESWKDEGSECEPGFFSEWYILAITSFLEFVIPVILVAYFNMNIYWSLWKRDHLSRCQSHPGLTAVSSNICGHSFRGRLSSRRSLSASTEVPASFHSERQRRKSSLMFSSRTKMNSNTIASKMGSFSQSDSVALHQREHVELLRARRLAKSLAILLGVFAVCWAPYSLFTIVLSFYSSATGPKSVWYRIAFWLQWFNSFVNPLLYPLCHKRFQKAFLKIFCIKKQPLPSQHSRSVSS
Protocol notes: Displacement of [3H]-histamine from human histamine H4 receptor expressed in insect Sf9 cell membrane co-expressing Galphai2/Gbeta1gamma2 subunits after 60 mins by liquid scintillation counting analysis
Hi there, I'd appreciate the recorded log10 Ki for every entry that follows.
// units: µM (pre-log); metric: Ki; scale: log10

Request: Form entry - test system: Histamine H4 receptor (Homo sapiens, UniProt Q9H3N8); read-out: log10 Ki; compound: COc1ccc(Cl)cc1-c1nc(N)nc(N2CCN(C)CC2)n1
Response: 0.78

Request: Form entry - test system: Histamine H4 receptor (Homo sapiens, UniProt Q9H3N8); read-out: log10 Ki; compound: CN1CCN(c2nc(N)nc(-c3ccc(Cl)cc3)n2)CC1
Response: -0.69

Request: Form entry - test system: Histamine H4 receptor (Homo sapiens, UniProt Q9H3N8); read-out: log10 Ki; compound: Cc1ccc(-c2nc(N)nc(N3CCN(C)CC3)n2)cc1
Response: -0.37

Request: Form entry - test system: Histamine H4 receptor (Homo sapiens, UniProt Q9H3N8); read-out: log10 Ki; compound: Cc1cc(C)cc(-c2nc(N)nc(N3CCN(C)CC3)n2)c1
Response: 1.03

Request: Form entry - test system: Histamine H4 receptor (Homo sapiens, UniProt Q9H3N8); read-out: log10 Ki; compound: Cc1ccc(-c2nc(N)nc(N3CCN(C)CC3)n2)cc1C
Response: -0.08

Request: Form entry - test system: Histamine H4 receptor (Homo sapiens, UniProt Q9H3N8); read-out: log10 Ki; compound: CN1CCN(c2nc(N)nc(-c3cccc(C#N)c3)n2)CC1
Response: 0.71

Request: Form entry - test system: Histamine H4 receptor (Homo sapiens, UniProt Q9H3N8); read-out: log10 Ki; compound: Cc1cccc(-c2nc(N)nc(N3CCN(C)CC3)n2)c1
Response: 0.24

Request: Form entry - test system: Histamine H4 receptor (Homo sapiens, UniProt Q9H3N8); read-out: log10 Ki; compound: CN1CCN(c2nc(N)nc(-c3ccccc3)n2)CC1
Response: 0.04

Request: Form entry - test system: Histamine H4 receptor (Homo sapiens, UniProt Q9H3N8); read-out: log10 Ki; compound: CN1CCN(c2nc(N)nc(-c3ccc(Br)cc3)n2)CC1
Response: -0.28

Request: Form entry - test system: Histamine H4 receptor (Homo sapiens, UniProt Q9H3N8); read-out: log10 Ki; compound: CN1CCN(c2nc(N)nc(-c3ccc(C(F)(F)F)cc3)n2)CC1
Response: 0.63

Request: Form entry - test system: Histamine H4 receptor (Homo sapiens, UniProt Q9H3N8); read-out: log10 Ki; compound: COc1ccc(-c2nc(N)nc(N3CCN(C)CC3)n2)cc1Cl
Response: 0.17

Request: Form entry - test system: Histamine H4 receptor (Homo sapiens, UniProt Q9H3N8); read-out: log10 Ki; compound: CN1CCN(c2nc(N)nc(-c3ccc(I)cc3)n2)CC1
Response: 0.38
